# System: 843782-103-R-J1-PDC complex spheroid viability
# Assay info: Anticancer human tumor 843782-103-R-J1-PDC patient-derived lung adenocarcinoma cell line growth inhibition [RAS]
# Assay context: second compound 0.1 µM; first compound 3.16 µM; stronger effect = lower value
Rule: measured viability, T/C below 20% gets True; anything equal to or greater than 20% gets False.

>>> class_assignment("CC(C)NCC(C(=O)N1CCN(c2ncnc3c2C(C)CC3O)CC1)c1ccc(Cl)cc1 (stereo unspecified) + C#Cc1c(F)ccc2cc(O)cc(-c3ncc4c(N5CC6CCC(C5)N6)nc(OCC56CCCN5CC(F)C6)nc4c3F)c12")
"False"
>>> class_assignment("Cc1nc(N2CCC3(CC2)COC(C)C3N)c(CO)nc1Sc1ccnc(N)c1Cl (stereo unspecified) + C#Cc1c(F)ccc2cc(O)cc(-c3ncc4c(N5CC6CCC(C5)N6)nc(OCC56CCCN5CC(F)C6)nc4c3F)c12")
"False"
>>> class_assignment("CC(Nc1ccc2c(c1)OCCn1cc(N3C(=O)OCC3C(F)F)nc1-2)C(N)=O (stereo unspecified) + C#Cc1c(F)ccc2cc(O)cc(-c3ncc4c(N5CC6CCC(C5)N6)nc(OCC56CCCN5CC(F)C6)nc4c3F)c12")
"False"
>>> class_assignment("CC1(O)CCCC1n1c(=O)c(C(F)F)cc2cnc(NC3CCN(S(C)(=O)=O)CC3)nc21 (stereo unspecified) + C=CC(=O)N1CCN(c2nc(OCC3CCCN3C)nc3c(F)c(-c4nc(N)cc(C)c4C(F)(F)F)c(Cl)cc23)C(C)C1")
"False"
>>> class_assignment("CCC(CC)c1cc(NC2CCC(N)C2)n2nccc2n1 (stereo unspecified) + C#Cc1c(F)ccc2cc(O)cc(-c3ncc4c(N5CC6CCC(C5)N6)nc(OCC56CCCN5CC(F)C6)nc4c3F)c12")
"True"
>>> class_assignment("C[C@@H](NC(=O)c1ncnc(N)c1Cl)c1ncc(C(=O)Nc2cc(C(F)(F)F)c(Cl)cn2)s1 + C#Cc1c(F)ccc2cc(O)cc(-c3ncc4c(N5CC6CCC(C5)N6)nc(OCC56CCCN5CC(F)C6)nc4c3F)c12")
"False"

====

# Tested on: 843782-103-R-J1-PDC complex spheroid viability
# Assay info: Anticancer human tumor 843782-103-R-J1-PDC cell line growth inhibition [RAS];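 also: viability read after seven days of compound exposure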
# Assay context: curve of first compound; second compound 0.000949 µM
pIC50: −log10 of the molar value.
Quantity measured: pIC50

>>> endpoint_value("CC(=O)OC12COC1CC(O)C1(C)C(=O)C(O)C3=C(C)C(OC(=O)C(O)C(NC(=O)OC(C)(C)C)c4ccccc4)CC(O)(C(OC(=O)c4ccccc4)C21)C3(C)C (stereo not drawn) + CCn1c(-c2cccnc2C(C)OC)c2c3cc(ccc31)N1CCOC(CC(NC(=O)C(C(C)C)N(C)C(=O)C3(F)CCN(C(=O)C#CC(C)(C)N(C)C)CC3)C(=O)N3CCCC(N3)C(=O)OCC(C)(C)C2)C1")
"> 7.50"
>>> endpoint_value("C[C@@H](NC(=O)c1ncnc(N)c1Cl)c1ncc(C(=O)Nc2cc(C(F)(F)F)c(Cl)cn2)s1 + CCn1c(-c2cc(N3CCN(C)CC3)cnc2C(C)OC)c2c3cc(ccc31)-c1csc(n1)CC(NC(=O)C1CC1C)C(=O)N1CCCC(N1)C(=O)OCC(C)(C)C2")
"< 5.00"
>>> endpoint_value("CC(=O)OC12COC1CC(O)C1(C)C(=O)C(O)C3=C(C)C(OC(=O)C(O)C(NC(=O)OC(C)(C)C)c4ccccc4)CC(O)(C(OC(=O)c4ccccc4)C21)C3(C)C (stereo not drawn) + CCn1c(-c2cc(N3CCN(C)CC3)cnc2C(C)OC)c2c3cc(ccc31)-c1csc(n1)CC(NC(=O)C1CC1C)C(=O)N1CCCC(N1)C(=O)OCC(C)(C)C2")
"> 7.50"
